- ASSAY OVERVIEW: Inhibition of Rhinovirus A89 capsid infected in human HeLa Rh cells assessed as reduction in virus-induced cytopathic effect after 3 days by MTS assay
OUTCOME MEASURE: EC50 (nM)
Write the value in nM as a bare number.

INSERT INTO measurements (smiles, outcome_measure, numeric_value) VALUES
  ('Cc1cc(CCCOc2c(C)cc(-c3noc(C(F)(F)F)n3)cc2C)on1', 'EC50', 4),
  ('Cn1cc(-c2ccc(C[C@@H](O)c3ccc(-n4cncn4)cc3)c([N+](=O)[O-])c2)cn1', 'EC50', 1500),
  ('Cn1cc(-c2ccc(C[C@@H](O)c3ccc(-n4cccn4)cc3)c([N+](=O)[O-])c2)cn1', 'EC50', 190);

// switching to the query molecule
Item under review: Cn1cc(-c2ccc(C[C@H](O)c3ccc(-n4cccn4)cc3)c([N+](=O)[O-])c2)cn1 . Reported EC50?
2400

* * *

- ASSAY OVERVIEW: Inhibition of Rhinovirus A28 capsid infected in human HeLa Rh cells assessed as reduction in virus-induced cytopathic effect after 3 days by MTS assay
OUTCOME MEASURE: EC50

INSERT INTO results (smiles, result) VALUES
  ('Cn1cc(-c2ccc(C[C@@H](O)c3ccc(-n4cncn4)cc3)c([N+](=O)[O-])c2)cn1', '> 128 µM'),
  ('Cn1cc(-c2ccc(C[C@H](O)c3ccc(-n4cccn4)cc3)c([N+](=O)[O-])c2)cn1', '> 128 µM'),
  ('Cn1cc(-c2ccc(C[C@@H](O)c3ccc(-n4cccn4)cc3)c([N+](=O)[O-])c2)cn1', '> 128 µM');

Item under review: Cn1cc(-c2ccc(C[C@H](O)c3ccc(-n4cncn4)cc3)c([N+](=O)[O-])c2)cn1 . Reported EC50?
> 128 µM

Item under review: Cc1cc(CCCOc2c(C)cc(-c3noc(C(F)(F)F)n3)cc2C)on1 . Reported EC50?
0.015 µM

* * *

The following molecules are listed with their measured pEC50 values.
- ASSAY OVERVIEW: Inhibition of Rhinovirus A85 capsid infected in human HeLa Rh cells assessed as reduction in virus-induced cytopathic effect after 3 days by MTS assay
pEC50: −log10 of the molar value.

Example entries begin here.
INSERT INTO assay_data (smiles, result) VALUES
  ('Cn1cc(-c2ccc(C[C@H](O)c3ccc(-n4cccn4)cc3)c([N+](=O)[O-])c2)cn1', '< 3.89'),
  ('Cn1cc(-c2ccc(C[C@@H](O)c3ccc(-n4cccn4)cc3)c([N+](=O)[O-])c2)cn1', '< 3.89'),
  ('Cn1cc(-c2ccc(C[C@H](O)c3ccc(-n4cncn4)cc3)c([N+](=O)[O-])c2)cn1', '< 3.89'),
  ('Cn1cc(-c2ccc(C[C@@H](O)c3ccc(-n4cncn4)cc3)c([N+](=O)[O-])c2)cn1', '< 3.89');

// switching to the query molecule
Item under review: Cc1cc(CCCOc2c(C)cc(-c3noc(C(F)(F)F)n3)cc2C)on1 . Reported pEC50?
7.96

* * *

The following compounds are listed with their measured EC50 values.
- ASSAY OVERVIEW: Inhibition of Rhinovirus B70 capsid infected in human HeLa Rh cells assessed as reduction in virus-induced cytopathic effect after 3 days by MTS assay

Example entries begin here.
INSERT INTO measurements (smiles, outcome_measure, result) VALUES
  ('Cn1cc(-c2ccc(C[C@@H](O)c3ccc(-n4cccn4)cc3)c([N+](=O)[O-])c2)cn1', 'EC50', '> 128000 nM'),
  ('Cn1cc(-c2ccc(C[C@H](O)c3ccc(-n4cncn4)cc3)c([N+](=O)[O-])c2)cn1', 'EC50', '50 nM'),
  ('Cc1cc(CCCOc2c(C)cc(-c3noc(C(F)(F)F)n3)cc2C)on1', 'EC50', '167 nM'),
  ('Cn1cc(-c2ccc(C[C@H](O)c3ccc(-n4cccn4)cc3)c([N+](=O)[O-])c2)cn1', 'EC50', '17 nM');

// switching to the query compound
Item under review: Cn1cc(-c2ccc(C[C@@H](O)c3ccc(-n4cncn4)cc3)c([N+](=O)[O-])c2)cn1 . Reported EC50?
> 20000 nM
